Numbers sourced from ChEMBL document CHEMBL5442168.

# procedure.summary: Human liver microsomal stability of compound in microsomal protein, PBS buffer pH 7.4, NADPH, glucose-6-phosphate and glucose-6-phosphate dehydrogenase media. Aliquotes were taken at 5 time points and after stopping the reaction, supernatants were analyzed using HPLC coupled with a tandem mass spectrometer. The elimination constant, half-life, and intrinsic clearance are determined as results using linear regression analysis. The assay has been performed by Enamine biological services, Bienta Ltd.The protocol is publicly available: dx.doi.org/10.17504/protocols.io.5qpvokdb9l4o/v1
# Type: ADME, microsomes, Microsome
# measurement.context: microsomes
Please note: Remaining exactly at 20% is 0.0. Only values below 20% get 1.0.

Record excerpt, results attached:
molecule	assigned.category
COc1ccc([C@@H](CC(=O)O)NC(=O)c2ncnc3[nH]ccc23)cc1	0.0
CCNC(=O)c1cc2c(N[C@H](c3ccc4c(c3)S(=O)(=O)CCC4)C(C)C)ncnc2[nH]1	1.0
COc1ccc([C@@H](NC(=O)c2[nH]cnc3nccc2-3)C(C)c2nnn[nH]2)cc1 (stereo partly drawn)	0.0
CNC(=O)c1c[nH]c2ncnc(N[C@@H](c3ccc4c(c3)OCCO4)C(C)C)c12	0.0
CNC(=O)c1c[nH]c2ncnc(N[C@@H](c3ccc4c(c3)NC(=O)CO4)C(C)C)c12	0.0

For this molecule, is Remaining lower than 20%? CC(C)[C@H](Nc1ncnc2[nH]c(-c3cnn(C)c3C#N)cc12)c1ccc2c(n1)OCCO2
0.0

For this molecule, is Remaining lower than 20%? CC(C)[C@@H](Nc1ncnc2[nH]c(-c3ccc4nnn(C)c4c3)cc12)c1ccc2c(c1)S(=O)(=O)CCC2
1.0

For this molecule, is Remaining lower than 20%? CNC(=O)c1cc2c(N[C@@H](c3ccc4c(c3)OCCO4)C(C)C)ncnc2[nH]1
0.0

For this molecule, is Remaining lower than 20%? C[C@@H](C(=O)O)[C@@H](NC(=O)c1ncnc2[nH]ccc12)c1ccc(Br)cc1
0.0

For this molecule, is Remaining lower than 20%? Cc1nn(C)cc1-c1cc2c(N[C@H](c3ccc4c(c3)S(=O)(=O)CCC4)C(C)C)ncnc2[nH]1
1.0

For this molecule, is Remaining lower than 20%? CC(C)[C@H](Nc1ncnc2[nH]c(-c3cnn(CC(N)=O)c3)cc12)c1ccc2c(c1)S(=O)(=O)CCC2
1.0

For this molecule, is Remaining lower than 20%? CC(C)[C@@H](Nc1ncnc2[nH]c(-c3cnn(CC(N)=O)c3)cc12)c1ccc2c(c1)S(=O)(=O)CCC2
1.0

For this molecule, is Remaining lower than 20%? Cc1nn(C)cc1-c1cc2c(N[C@@H](c3ccc4c(c3)S(=O)(=O)CCC4)C(C)C)ncnc2[nH]1
1.0

* * *

# procedure.summary: Human liver microsomal stability of compound in microsomal protein, PBS buffer pH 7.4, NADPH, glucose-6-phosphate and glucose-6-phosphate dehydrogenase media. Aliquotes were taken at 5 time points and after stopping the reaction, supernatants were analyzed using HPLC coupled with a tandem mass spectrometer. The elimination constant, half-life, and intrinsic clearance are determined as results using linear regression analysis. The assay has been performed by Enamine biological services, Bienta Ltd.The protocol is publicly available: dx.doi.org/10.17504/protocols.io.5qpvokdb9l4o/v1
# Assay type: ADME, microsomes, Microsome
# measurement.context: liver microsomes
# half-life per entry
Give a bare numeral; the unit min is implied.

input.smiles	measurement.unit	half-life
CC(C)[C@@H](Nc1ncnc2[nH]c(-c3ccc4cncn4c3)cc12)c1ccc2c(c1)S(=O)(=O)CCC2	min	8
CC(C)[C@H](Nc1ncnc2[nH]c(-c3cnn(CC(N)=O)c3)cc12)c1ccc2c(c1)OCCO2	min	35.4
CC(C)[C@@H](Nc1ncnc2[nH]c(-c3cnn(CC(N)=O)c3)cc12)c1ccc2c(c1)S(=O)(=O)CCC2	min	14.4

Noted for CNC(=O)c1cccc(-c2cc3c(N[C@H](c4ccc5c(c4)S(=O)(=O)CCC5)C(C)C)ncnc3[nH]2)c1 : its half-life reads 2.2

* * *

# procedure.summary: Mouse liver microsomal stability of compound in microsomal protein, PBS buffer pH 7.4, NADPH, glucose-6-phosphate and glucose-6-phosphate dehydrogenase media. Aliquotes were taken at 5 time points and after stopping the reaction, supernatants were analyzed using HPLC coupled with a tandem mass spectrometer. The elimination constant, half-life, and intrinsic clearance are determined as results using linear regression analysis. The assay has been performed by Enamine biological services, Bienta Ltd.The protocol is publicly available: dx.doi.org/10.17504/protocols.io.5qpvokdb9l4o/v1
# Assay type: ADME, microsomes, Microsome
# measurement.context: liver microsomes
# microsomal CLint per entry
Give a bare numeral; the unit µL/min/mg is implied.

Observe how each entry below is paired with its result.
input.smiles	numeric.readout
CC(C)[C@H](Nc1ncnc2[nH]ccc12)c1ccc2c(c1)NC(=O)CO2	37
CCNC(=O)c1cc2c(N[C@@H](c3ccc4c(c3)S(=O)(=O)CCC4)C(C)C)ncnc2[nH]1	85

Noted for CNC(=O)c1cc2c(N[C@@H](c3ccc4c(c3)OCCO4)C(C)C)ncnc2[nH]1 : its microsomal CLint reads 55
